Kindly supply the reported Toxicity Assay % Fluor values for the records listed here.
Test system: Clone V cells
protocolNotes: CellTiter Blue (CTB) cell viability counter-screen
conditionDetails: CC_NCI screening; CTB cell viability fluorescence; normalized to on-plate 0.3% DMSO controls
Counter-ions that a name gives are not always drawn.
Quick note: number first, unit second.

CC1(C)CCC(c2ccc(Cl)cc2)=C(CN2CCN(c3ccc(C(=O)NS(=O)(=O)c4ccc(N[C@H](CCN5CCOCC5)CSc5ccccc5)c(S(=O)(=O)C(F)(F)F)c4)cc3)CC2)C1 [ABT-263]
92.92%
Clc1ccc(Nc2nnc(Cc3ccncc3)c3ccccc23)cc1 [VATALANIB]
87.19%
CC[C@]1(O)C[C@H]2CN(CCc3c([nH]c4ccccc34)[C@@](C(=O)OC)(c3cc4c(cc3OC)N(C=O)[C@H]3[C@@](O)(C(=O)OC)[C@H](OC(C)=O)[C@]5(CC)C=CCN6CC[C@]43[C@@H]65)C2)C1 [Vincristine sulfate]
98.56%
CCCS(=O)(=O)Nc1ccc(F)c(C(=O)c2c[nH]c3ncc(-c4ccc(Cl)cc4)cc23)c1F [Vemurafenib]
86.56%
CN1CCN(CCOc2cc(OC3CCOCC3)c3c(Nc4c(Cl)ccc5c4OCO5)ncnc3c2)CC1 [SARACATINIB]
108.09%
CCCCCCCCCCCCCCCCCCOP(=O)([O-])OC1CC[N+](C)(C)CC1 [PERIFOSINE]
83.07%
Cc1ccc(F)c(NC(=O)Nc2ccc(-c3cccc4[nH]nc(N)c34)cc2)c1 [ABT-869]
87.41%
C#CCC(Cc1cnc2nc(N)nc(N)c2n1)c1ccc(C(=O)N[C@@H](CCC(=O)O)C(=O)O)cc1 (stereo partly drawn) [Pralatrexate]
96.60%
CS(=O)(=O)CCNCc1ccc(-c2ccc3ncnc(Nc4ccc(OCc5cccc(F)c5)c(Cl)c4)c3c2)o1 [LAPATINIB]
85.57%
Nc1nc2[nH]cc(CCc3ccc(C(=O)N[C@@H](CCC(=O)O)C(=O)O)cc3)c2c(=O)[nH]1 [Pemetrexed]
94.67%

Batch request: Toxicity Assay % Fluor per item, same order as input.
1. CN(C)CC[C@H](CSc1ccccc1)Nc1ccc(S(=O)(=O)NC(=O)c2ccc(N3CCN(Cc4ccccc4-c4ccc(Cl)cc4)CC3)cc2)cc1[N+](=O)[O-] [ABT-737]
2. Cc1c(NC(=O)OC[C@@H]2COCCN2)cn2ncnc(Nc3ccc4c(cnn4Cc4cccc(F)c4)c3)c12 [BMS-599626]
3. N#Cc1ccc(C(c2ccc(C#N)cc2)n2cncn2)cc1 [Letrozole]
4. CC[C@@]1(O)C(=O)OCc2c1cc1n(c2=O)Cc2cc3c(CN(C)C)c(O)ccc3nc2-1 [Topotecan hydrochloride]
5. CNCc1ccc(-c2[nH]c3cc(F)cc4c3c2CCNC4=O)cc1 [AG014699]

107.35%
101.94%
93.68%
93.13%
96.59%

###

Test system: Clone V cells
quantityName: Toxicity Assay % Fluor (%)
One number for each entry, in %.

COc1cc2/c(=N/c3ccc(Br)cc3F)nc[nH]c2cc1OCC1CCN(C)CC1 [VANDETANIB]
85.66
O=[As]O[As]=O (stereo not drawn) [Arsenic trioxide]
84.44
C=CCNC1=C2C[C@@H](C)C[C@H](OC)[C@H](O)[C@@H](C)/C=C(\C)[C@H](OC(N)=O)[C@@H](OC)/C=C\C=C(/C)C(=O)NC(=CC1=O)C2=O [Compound 17-AAG]
88.49

Batch request: Toxicity Assay % Fluor per item, same order as input.
1. COc1ccc2c(c1)CC[C@@H]1[C@@H]2CC[C@]2(C)[C@@H](NCCCCCCN3C(=O)C=CC3=O)CC[C@@H]12 [U 73122]
2. Cc1ccc(Nc2nccc(N(C)c3ccc4c(C)n(C)nc4c3)n2)cc1S(N)(=O)=O.Cl [Pazopanib hydrochloride]

[102.60, 92.21]

Where do the numbers come from? From paper PMC6858373.
